- Experimental protocol: Mean residence time (0 to t) in Sprague-Dawley rat at 1 mg/kg, iv administered as single dose
- Assay type: ADME, organism-based
- Stated conditions: in vivo
Test readout: MRT last
# do not omit the unit; it follows the number

// MRT last lookup, key: COc1ccc2c(c[n+]3c4c2cc(Cc2ccccc2C)c2c5c(cc(c24)CC3)OCO5)c1OC.[Br-]
4.3 h

====

- Test system: Staphylococcus aureus
- Experimental protocol: Antibacterial activity against methicillin-sensitive Staphylococcus aureus ATCC 29213 after 18 hrs by agar dilution method
- Format: functional
- Stated conditions: ATCC 29213, 18 h
Test readout: MIC (µg/mL)
Provide only the numeric value, understood in µg/mL.

// MIC lookup, key: COc1ccc2c(c[n+]3c4c2cc(C(C)c2ccccc2)c2c5c(cc(c24)CC3)OCO5)c1OC.[Br-] (stereo not drawn)
2

// MIC lookup, key: COC(=O)c1ccc(Cc2cc3c4ccc(OC)c(OC)c4c[n+]4c3c3c(cc5c(c23)OCO5)CC4)cc1.[Br-]
32

====

- Experimental protocol: Half life in Sprague-Dawley rat at 5 mg/kg, po administered as single dose
- Type: ADME, organism-based
- Stated conditions: in vivo
Test readout: half-life (h)
Provide only the numeric value, understood in h.

// half-life lookup, key: COc1ccc2c(c[n+]3c4c2cc(Cc2ccccc2C)c2c5c(cc(c24)CC3)OCO5)c1OC.[Br-]
1.5

====

- Experimental protocol: Cmax in Sprague-Dawley rat at 5 mg/kg, po administered as single dose
- Format: ADME, organism-based
- Set-up: dose 5 mg/kg, route oral
- Stated conditions: in vivo
Test readout: Cmax (ng/mL)
Provide only the numeric value, understood in ng/mL.

// Cmax lookup, key: COc1ccc2c(c[n+]3c4c2cc(Cc2ccccc2C)c2c5c(cc(c24)CC3)OCO5)c1OC.[Br-]
11.7

====

- Test system: Staphylococcus aureus
- Experimental protocol: Antibacterial activity against methicillin-sensitive Staphylococcus aureus ATCC 29213 after 18 hrs by agar dilution method
- Assay type: functional
- Stated conditions: ATCC 29213, 18 h
Test readout: MIC

// MIC lookup, key: COC(=O)C(c1ccccc1)c1cc2c3ccc(OC)c(OC)c3c[n+]3c2c2c(cc4c(c12)OCO4)CC3.[Br-] (stereo not drawn)
> 64 µg/mL

// MIC lookup, key: COc1ccc2c(c[n+]3c4c2cc(Cc2ccccc2[N+](=O)[O-])c2c5c(cc(c24)CC3)OCO5)c1OC.[Br-]
8 µg/mL

// MIC lookup, key: COc1ccc2c(c[n+]3c4c2cc(Cc2cc(C(F)(F)F)cc(C(F)(F)F)c2)c2c5c(cc(c24)CC3)OCO5)c1OC.[Br-]
> 64 µg/mL

// MIC lookup, key: COc1ccc2c(c[n+]3c4c2cc(Cc2cc(C)cc(C)c2)c2c5c(cc(c24)CC3)OCO5)c1OC.[Br-]
4 µg/mL

// MIC lookup, key: COc1ccc2c(c[n+]3c4c2cc(Cc2ccc(Br)cc2)c2c5c(cc(c24)CC3)OCO5)c1OC.[Br-]
16 µg/mL

// MIC lookup, key: COc1ccc2c(c[n+]3c4c2cc(Cc2ccncc2)c2c5c(cc(c24)CC3)OCO5)c1OC.[Br-]
64 µg/mL

// MIC lookup, key: COc1ccc2c(c[n+]3c4c2cc(Cc2ccc(C#N)cc2)c2c5c(cc(c24)CC3)OCO5)c1OC.[Br-]
> 64 µg/mL

// MIC lookup, key: COc1ccc2c(c[n+]3c4c2cc(Cc2cccnc2)c2c5c(cc(c24)CC3)OCO5)c1OC.[Br-]
16 µg/mL
